# System Under Test: Cathepsin K (Homo sapiens)
# Sequence (P43235 115-329, species assumed): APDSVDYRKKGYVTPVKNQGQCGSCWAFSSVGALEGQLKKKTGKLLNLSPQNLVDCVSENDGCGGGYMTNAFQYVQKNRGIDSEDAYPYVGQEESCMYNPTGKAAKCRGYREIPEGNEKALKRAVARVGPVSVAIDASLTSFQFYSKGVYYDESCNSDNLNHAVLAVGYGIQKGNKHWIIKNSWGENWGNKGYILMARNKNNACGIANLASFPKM
# Test Protocol: Cathepsin IC50, Cathepsin K
# Assay type: biochemical
Exercise: state measured IC50 for each of the compounds provided.
Express your answer in µM, writing the number without its unit.

Given the compound C[C@@H]1C[C@@H](NC(=O)c2ncc(-c3cccc(OC(F)(F)F)c3)o2)CN1C#N and test system Cathepsin K (Homo sapiens), the measured IC50 is 9.8

Given the compound COC[C@@H]1C[C@@H](NC(=O)c2ncc(-c3cccc(OC(F)(F)F)c3)o2)CN1C#N and test system Cathepsin K (Homo sapiens), the measured IC50 is 16.5

----------
# System Under Test: hERG potassium channel (Homo sapiens, UniProt Q12809)
# Construct: expressed in transfected cells
# Sequence (Q12809 whole entry): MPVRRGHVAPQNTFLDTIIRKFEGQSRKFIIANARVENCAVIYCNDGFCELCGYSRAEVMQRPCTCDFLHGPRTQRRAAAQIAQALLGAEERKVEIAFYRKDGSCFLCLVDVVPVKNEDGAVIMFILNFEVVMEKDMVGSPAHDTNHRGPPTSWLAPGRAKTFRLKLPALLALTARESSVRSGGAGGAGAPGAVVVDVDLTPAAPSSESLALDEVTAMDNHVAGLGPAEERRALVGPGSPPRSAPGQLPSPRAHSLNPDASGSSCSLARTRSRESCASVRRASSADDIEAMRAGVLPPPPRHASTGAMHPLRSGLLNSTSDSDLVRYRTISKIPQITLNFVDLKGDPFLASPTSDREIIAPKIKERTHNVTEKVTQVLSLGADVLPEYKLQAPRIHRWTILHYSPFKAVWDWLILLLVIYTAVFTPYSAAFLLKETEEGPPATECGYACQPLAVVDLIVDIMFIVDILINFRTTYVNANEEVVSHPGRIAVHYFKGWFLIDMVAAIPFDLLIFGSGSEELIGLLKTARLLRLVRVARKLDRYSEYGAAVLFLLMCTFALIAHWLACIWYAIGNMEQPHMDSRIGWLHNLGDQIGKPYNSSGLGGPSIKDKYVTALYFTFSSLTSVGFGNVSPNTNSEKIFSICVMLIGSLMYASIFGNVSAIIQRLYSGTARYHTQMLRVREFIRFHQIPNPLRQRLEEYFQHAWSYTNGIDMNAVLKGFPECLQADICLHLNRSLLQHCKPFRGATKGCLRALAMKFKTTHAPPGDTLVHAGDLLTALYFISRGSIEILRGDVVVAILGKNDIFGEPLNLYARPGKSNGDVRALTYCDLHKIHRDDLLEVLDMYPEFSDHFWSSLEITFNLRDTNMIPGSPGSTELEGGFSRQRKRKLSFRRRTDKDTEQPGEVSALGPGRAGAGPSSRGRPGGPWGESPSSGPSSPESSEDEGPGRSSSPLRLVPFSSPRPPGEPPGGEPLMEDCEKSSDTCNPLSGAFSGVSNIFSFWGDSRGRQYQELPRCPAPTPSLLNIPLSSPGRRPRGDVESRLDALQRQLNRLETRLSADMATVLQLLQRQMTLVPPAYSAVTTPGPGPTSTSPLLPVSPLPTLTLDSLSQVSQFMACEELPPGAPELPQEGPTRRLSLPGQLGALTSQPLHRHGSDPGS
# Test Protocol: hERG potassium channel in stably expressed CHO cells
# Type: cell-based
# Condition Context: human, CHO cells stably expressing hERG, 30 μM, read-out: inhibition of the hERG current amplitude
Measurement Name: inhibition at 30 µM (%)
Express your answer in %, writing the number without its unit.

Given the compound C[C@@H]1C[C@@H](NC(=O)c2ncc(-c3cccc(OC(F)(F)F)c3)o2)CN1C#N and test system hERG potassium channel (Homo sapiens, UniProt Q12809), the measured inhibition at 30 µM is 54.3

Given the compound COC[C@@H]1C[C@@H](NC(=O)c2ncc(-c3cccc(OC(F)(F)F)c3)o2)CN1C#N and test system hERG potassium channel (Homo sapiens, UniProt Q12809), the measured inhibition at 30 µM is 44.3

----------
# System Under Test: Cathepsin S (Homo sapiens)
# Sequence (P25774 115-331, species assumed): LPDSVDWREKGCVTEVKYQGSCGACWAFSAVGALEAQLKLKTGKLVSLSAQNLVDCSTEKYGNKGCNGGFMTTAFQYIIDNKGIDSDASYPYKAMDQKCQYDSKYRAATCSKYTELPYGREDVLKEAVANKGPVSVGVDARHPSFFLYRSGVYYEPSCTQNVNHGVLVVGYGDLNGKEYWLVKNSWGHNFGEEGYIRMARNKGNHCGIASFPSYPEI
# Test Protocol: Cathepsin IC50, Cathepsin S
# Type: biochemical
Measurement Name: IC50 (µM)
Express your answer in µM, writing the number without its unit.

// field: IC50; key: COC[C@@H]1C[C@@H](NC(=O)c2ncc(-c3cccc(OC(F)(F)F)c3)o2)CN1C#N ; value = 158

----------
# Test Protocol: PK mouse
# Type: in vivo
# Condition Context: 2 mg/kg IV dose - mouse; unbound brain to unbound plasma
Measurement Name: Kp uu

// field: Kp uu; key: COC[C@@H]1C[C@@H](NC(=O)c2ncc(-c3cccc(OC(F)(F)F)c3)o2)CN1C#N ; value = 0.21

----------
Exercise: state measured solubility for each of the molecules provided.
# Test Protocol: Turbidimetric solubility
# Format: physicochemical
# Condition Context: aqueous buffer, kinetic from dmso stock

// field: solubility; key: COC[C@@H]1C[C@@H](NC(=O)c2ncc(-c3cccc(OC(F)(F)F)c3)o2)CN1C#N ; value = > 100 µM

// field: solubility; key: C[C@@H]1C[C@@H](NC(=O)c2ncc(-c3cccc(OC(F)(F)F)c3)o2)CN1C#N ; value = > 100 µM

----------
# System Under Test: Cathepsin V (Homo sapiens, UniProt O60911)
# Sequence (O60911 114-334, species assumed): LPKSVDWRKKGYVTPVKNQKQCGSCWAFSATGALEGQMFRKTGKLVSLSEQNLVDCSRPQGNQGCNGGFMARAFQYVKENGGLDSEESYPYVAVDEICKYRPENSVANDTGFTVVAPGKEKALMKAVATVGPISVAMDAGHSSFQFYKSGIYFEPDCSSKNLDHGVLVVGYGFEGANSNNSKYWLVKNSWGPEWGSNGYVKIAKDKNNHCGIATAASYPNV
# Test Protocol: Cathepsin IC50, Cathepsin V
# Assay type: biochemical
Exercise: state measured IC50 for each of the compounds provided.

// field: IC50; key: C[C@@H]1C[C@@H](NC(=O)c2ncc(-c3cccc(OC(F)(F)F)c3)o2)CN1C#N [Example 2] ; value = > 30 µM

// field: IC50; key: COC[C@@H]1C[C@@H](NC(=O)c2ncc(-c3cccc(OC(F)(F)F)c3)o2)CN1C#N [Example 1] ; value = 132 µM

----------
Exercise: state measured IC50 for each of the molecules provided.
# System Under Test: UniProtKB Q12809
# Test Protocol: hERG potassium channel in stably expressed CHO cells
# Condition Context: 0.01 to 30 μM, n=3

// field: IC50; key: C[C@@H]1C[C@@H](NC(=O)c2ncc(-c3cccc(OC(F)(F)F)c3)o2)CN1C#N [Example 2] ; value = 24.7 µM

// field: IC50; key: COC[C@@H]1C[C@@H](NC(=O)c2ncc(-c3cccc(OC(F)(F)F)c3)o2)CN1C#N [Example 1] ; value = 34.3 µM
